B1: HDV Ribozyme (parent)
chain: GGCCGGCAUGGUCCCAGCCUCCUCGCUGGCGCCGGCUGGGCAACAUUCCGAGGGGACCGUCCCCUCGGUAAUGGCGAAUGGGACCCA

Variants of: B1
assay.name: self-cleavage, relative activity (ratio to wild type); higher = more cleavage; co-transcriptional
For each record, write down the corresponding self-cleavage.
Numbers only.

For orientation, consider the following solved cases.
primary_sequence="GGCCGGCAUGGUCCCAGCCUCCUCGCUGGCGCCGGCUGGGCCACAUUCCGAGGGGACCGUCCCCUCGGCAAUGGCGAAUGGGACCCA [A42C U69C]" measured_attribute=self-cleavage value_measured=0.399
primary_sequence="GGCCGGCAUGGUCCCAGCCUCCUCGCUGGCGCCGGCUGGGCAACAUUCCGAGGGGACCGUCCCCUCGGUAAUGGCGAAUGAGACCCA [G81A]" measured_attribute=self-cleavage value_measured=0.403

API: the following record is the query input.
For GGCCGGCAUGGUCCCAGCCUCCUCGCUGGCACCGGCUGGGCAACAUUCCGAGGGGACCGUCCCCUCGGUGAUGGCGAAUGGGACCCA [G31A A70G] , what is its reported self-cleavage?
0.4
